src = PubChem BioAssay

Experiment: Plasmodium falciparum growth inhibition, primary screen, strain 3D7, DAPI fluorescence, 100 nL (AID 1184);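 also: parasites grown inside human red blood cells in medium with human serum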
Conditions: P. falciparum 3D7 growth, 3 d, higher = more signal
Mark N for z-score values under -2, and Y for everything at or above.

Molecule	Category label
COc1cc(NN2C(C(O)C3CCCCC3)C=CC3C(=O)N(c4ccccc4)C(=O)C32)cc(OC)c1OC (stereo unspecified)	Y
C=C(C(=O)CC[C@H](OC(=O)c1ccccc1-c1ccccc1C(=O)O)c1ccccc1OCCO)C(C)C	N
CCCCNC(=O)c1ccc(C#C[Si](C(C)C)(C(C)C)C(C)C)c(OC(C)=O)c1	N
CCCCC(=O)N(CCN1CCOCC1)[C@@H]1CC(C(=O)NCCO)=C[C@H](Oc2c(I)cc(CO)cc2OC)[C@H]1O	Y
COc1ccc([Si](C)(C)[C@H]2[C@H](CCO)O[C@@]3(C(=O)N(Cc4ccccc4)c4ccc(N5C(=O)c6ccccc6Oc6ccccc65)cc43)[C@@H]2C)cc1	Y
COc1ccc([Si](C)(C)[C@H]2[C@H](CC(=O)N3Cc4ccccc4C[C@H]3CO)O[C@@]3(C(=O)N(Cc4ccc(N5C(=O)c6cccc7cccc5c67)cc4)c4ccccc43)[C@@H]2C)cc1	Y

// switching to the query molecule
Request: Check this molecule for z-score at or above -2: COCCOC(=O)N1C(=O)[C@@]2(c3ccccc31)[C@H](c1ccccc1OCCO)N1[C@H](c3ccccc3)[C@H](c3ccccc3)OC(=O)[C@H]1[C@@H]2C(N)=O
Result: Y
